Tested on: HPPD polypeptides
Assay: coupled HPPD activity assay: turnover and residual turnover in crude extracts
Format: biochemical, Pseudomonas fluorescens
Settings: absence of Cmpd. 1; high substrate concentration; kinetic changes in absorbance (OD) at 320 nm, 30 min

molecule: 6 (protein, mutant HPPD polypeptide) MADLYENPMGLMGFEFIEFASPTPGTLEPIFEIMGFTKVATHRSKNVHLYRQGEINLILNNEPNSIASYFAAEHGPSVCGMAFRVKDSQKAYNRALELGAQPIHIDTGPMELNLPAIKGIGGAPLYLIDRFGEGSSIYDIDFVYLEGVERNPVGAGLKVIDHLTHNVYRGRMVYWANFYEKLFNFREARYFDIKGEYTGLTSKAMSAPDGMIRIPLNEESSKGAGQIEEFLMQFNGEGIQHVAFLTDDLVKTWDALKKIGMRFMTAPADNYYEMLEGRLPDHGEPVDQLQARGILLDGSSVEGDKRLLLQIFSETLMGPVFFEFIQRKGDDGFGPDSFKVLFESIERDQVRRGVLTAD
Turnover: 0.165
--
molecule: 69 (protein, mutant HPPD polypeptide) MADLYENPMGLMGFEFIEFASPTPGTLEPIFEIMGFTKVATHRSKNVHLYRQGEINLILNNEPNSIASYFAAEHGPSVCGMAFRVKDSQKAYNRALELGAQPIHIDTGPMELNLPAIKGIGGAPLYLIDRFGEGSSIYDIDFVYLEGVERNPVGAGLKVIDHLTHNVYRGRMVYWANFYEKLFNFREARYFDIKGEYTGLTSKAMSAPDGMIRIPLNEESSKGAGQIEEFLMQFNGEGIQHVAFLTDDLVKTWDALKKIGMRFMTAPADSYYEMLEGRLPDHGEPVDQLQARGILLDGSSVEGDKRLLLQIFSERLMGPVFFEFIQRKGDDGFGPHSFKVLFEQMERDQVRRGVLTAD
Turnover: 0.36
--
molecule: 24 (protein, mutant HPPD polypeptide) MADLYENPMGLMGFEFIEFASPTPGTLEPIFEIMGFTKVATHRSKNVHLYRQGEINLILNNEPNSIASYFAAEHGPSVCGMAFRVKDSQKAYNRALELGAQPIHIDTGPMELNLPAIKGIGGAPLYLIDRFGEGSSIYDIDFVYLEGVERNPVGAGLKVIDHLTHNVYRGRMVYWANFYEKLFNFREARYFDIKGEYTGLTSKAMSAPDGMIRIPLNEESSKGAGQIEEFLMQFNGEGIQHVAFLTDDLVKTWDALKKIGMRFMTAPADTYYEMLEGRLPDHGEPVDQLQARGILLDGSSVEGDKRLLLQIFSETLMGPVFFEFIQRKGDDGFGPHSFKVLFESIERDQVRRGVLTAD
Turnover: 0.271
--
molecule: 47 (protein, mutant HPPD polypeptide) MADLYENPMGLMGFEFIEFASPTPGTLEPIFEIMGFTKVATHRSKNVHLYRQGEINLILNNEPNSIASYFAAEHGPSVCGMAFRVKDSQKAYNRALELGAQPIHIDTGPMELNLPAIKGIGGAPLYLIDRFGEGSSIYDIDFVYLEGVERNPVGAGLKVIDHLTHNVYRGRMVYWANFYEKLFNFREARYFDIKGEYTGLTSKAMSAPDGMIRIPLNEESSKGAGQIEEFLMQFNGEGIQHVAFLTDDLVKTWDALKKIGMRFMTAPADNYYEMLEGRLPDHGEPVDQLQARGILLDGSSVEGDKRLLLQIFSETLMGPVFFEFIQRKGDDGFGPHSFKVLFEQMERDQVRRGVLTAD
Turnover: 0.314

src = patent US11180770B2
